- TGT: human PCSK9 / human LDLR EGFa domain interaction (Homo sapiens, UniProt Q8NBP7)
- Sequence (Q8NBP7 153-692): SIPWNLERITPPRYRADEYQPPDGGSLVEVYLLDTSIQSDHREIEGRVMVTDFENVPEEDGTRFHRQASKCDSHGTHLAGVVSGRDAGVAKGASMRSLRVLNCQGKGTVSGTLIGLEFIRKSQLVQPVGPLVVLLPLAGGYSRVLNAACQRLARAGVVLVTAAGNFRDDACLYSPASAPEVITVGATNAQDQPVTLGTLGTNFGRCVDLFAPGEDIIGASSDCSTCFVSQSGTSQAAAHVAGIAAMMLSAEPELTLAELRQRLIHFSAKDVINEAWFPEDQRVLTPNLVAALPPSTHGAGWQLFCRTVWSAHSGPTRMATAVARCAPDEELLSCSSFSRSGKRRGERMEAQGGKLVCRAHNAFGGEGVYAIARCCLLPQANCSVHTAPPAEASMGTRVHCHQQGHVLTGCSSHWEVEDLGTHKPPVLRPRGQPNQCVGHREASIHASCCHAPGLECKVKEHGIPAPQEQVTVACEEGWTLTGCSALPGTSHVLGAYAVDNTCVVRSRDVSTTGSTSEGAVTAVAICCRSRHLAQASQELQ
- Sequence (Q8NBP7 31-152 partner limits assumed): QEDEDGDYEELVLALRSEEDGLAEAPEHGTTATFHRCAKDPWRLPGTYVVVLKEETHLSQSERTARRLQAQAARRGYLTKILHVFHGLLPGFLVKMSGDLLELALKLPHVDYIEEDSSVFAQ
- ASSAY_SUMMARY: TR-FRET assay of inhibition of the PCSK9-LDLR protein-protein interaction
- DETAILS: 20 nM biotinylated human PCSK9 + 20 nM his-tagged human LDLR EGFa domain, 2 hours room temperature
pIC50: −log10 of the molar value. *1 amine or outer side, *2 acyl side, *3 side chain or, on linkers, in order; H or OH if unused. Where a SMILES comes first, the peptide text is derived from it. Bridges are numbered along the chain shown (N, C = ends). [ ]: non-standard residue; d: D form. X3 = N=C(N)NCc1ccc(C[C@H](N[*:1])C(=O)[*:2])cc1; Trp(7-aza) = N[C@@H](Cc1c[nH]c2ncccc12)C(=O)O; Phe(4-CH2NH2) = NCc1ccc(C[C@H](N)C(=O)O)cc1; X7 = O=C([C@H](Cc1cc[nH]c1)N[*:1])[*:2]; mXylylene = c1cc(C[*:1])cc(C[*:2])c1; pS = N[C@@H](COP(=O)(O)O)C(=O)O; Cha = N[C@@H](CC1CCCCC1)C(=O)O; Chg = N[C@H](C(=O)O)C1CCCCC1; Tle = CC(C)(C)[C@H](N)C(=O)O; αMeV = CC(C)[C@](C)(N)C(=O)O; αMeP = C[C@@]1(C(=O)O)CCCN1; Nva = CCC[C@H](N)C(=O)O; Aib = CC(C)(N)C(=O)O; Mpa = O=C(O)CCS; Sar = CNCC(=O)O
ENDPOINT_NAME: pIC50

CCC[C@@H]1NC(=O)[C@H](Cc2c[nH]c3ncccc23)NC(=O)[C@H]([C@@H](C)O)NC(=O)[C@@H]2CCCCNC(=O)CC[C@H](NC1=O)C(=O)N[C@@H](Cc1ccc(O)cc1)C(=O)N[C@@H](C1CCCCC1)C(=O)N[C@@H]([C@@H](C)O)C(=O)N[C@@H](C(N)=O)CSCc1cccc(c1)CSCCC(=O)N[C@@H](C(C)(C)C)C(=O)N[C@@H](Cc1ccc(O)cc1)C(=O)N2 [Compound 107] ([Mpa][Tle]YKT[Trp(7-aza)][Nva]EY[Chg]T[dC]-NH2; linker 1-12 via mXylylene; lactam 4-8) | 7.00 to 9.00

Query: Please report the measured pIC50 for CCC[C@H](NC(C)=O)C(=O)N[C@H]1CSCc2cccc(c2)CSC[C@@H](C(N)=O)NC(=O)[C@H]([C@@H](C)O)NC(=O)[C@H](C2CCCCC2)NC(=O)[C@H](Cc2c[nH]c3ncccc23)NC(=O)[C@H](Cc2c[nH]cn2)NC(=O)[C@H](CCC(=O)O)NC(=O)[C@H](Cc2c[nH]c3ncccc23)NC(=O)[C@H]([C@@H](C)O)NC(=O)CN(C)C(=O)[C@H](Cc2ccc(O)cc2)NC(=O)[C@H](C(C)(C)C)NC1=O [Compound 007] (Ac-[Nva]C[Tle]Y[Sar]T[Trp(7-aza)]EH[Trp(7-aza)][Chg]TC-NH2; linker 2-13 via mXylylene) tested on human PCSK9 / human LDLR EGFa domain interaction (Homo sapiens, UniProt Q8NBP7).
Reply: 4.92 to 6.00

Query: Please report the measured pIC50 for CCC[C@@H]1NC(=O)[C@H](Cc2c[nH]c3ncccc23)NC(=O)[C@H]([C@@H](C)O)NC(=O)[C@H](Cc2cnc[nH]2)NC(=O)[C@H](Cc2ccc(O)cc2)NC(=O)[C@H](C(C)(C)C)NC(=O)[C@@H](NC(=O)[C@H](Cc2ccc(CNC(=N)N)cc2)NC(C)=O)CSCc2cccc(c2)CSC[C@@H](C(N)=O)NC(=O)[C@H]([C@@H](C)O)NC(=O)[C@H](CCC)NC(=O)[C@H](Cc2ccc(O)cc2)NC(=O)[C@H](CCC(=O)O)NC1=O [Compound 098] (Ac-[X3]C[Tle]YHT[Trp(7-aza)][Nva]EY[Nva]TC-NH2; linker 2-13 via mXylylene) tested on human PCSK9 / human LDLR EGFa domain interaction (Homo sapiens, UniProt Q8NBP7).
Reply: 4.30 to 4.68

Query: Please report the measured pIC50 for CCC[C@@H]1NC(=O)[C@H](Cc2c[nH]c3ncccc23)NC(=O)[C@H]([C@@H](C)O)NC(=O)[C@H](Cc2cc[nH]c2)NC(=O)[C@H](Cc2ccc(O)cc2)NC(=O)[C@H](C(C)(C)C)NC(=O)CCSCc2cccc(c2)CSC[C@@H](C(N)=O)NC(=O)[C@]2(C)CCCN2C(=O)[C@H](Cc2ccc(O)cc2)NC(=O)[C@H](CCC(=O)O)NC1=O [Compound 076] ([Mpa][Tle]Y[X7]T[Trp(7-aza)][Nva]EY[αMeP]C-NH2; linker 1-11 via mXylylene) tested on human PCSK9 / human LDLR EGFa domain interaction (Homo sapiens, UniProt Q8NBP7).
Reply: 6.00 to 7.00

Query: Please report the measured pIC50 for CC(C)[C@]1(C)NC(=O)[C@H](Cc2ccc(O)cc2)NC(=O)[C@H](C)NC(=O)C(C)(C)NC(=O)[C@H](Cc2c[nH]c3ncccc23)NC(=O)[C@H]([C@@H](C)O)NC(=O)[C@@H]2CCCN2C(=O)[C@H](Cc2ccc(O)cc2)NC(=O)[C@H](C(C)(C)C)NC(=O)CCSCc2cccc(c2)CSC[C@@H](C(N)=O)NC(=O)[C@H](COP(=O)(O)O)NC1=O [Compound 016] ([Mpa][Tle]YPT[Trp(7-aza)][Aib]AY[αMeV][pS]C-NH2; linker 1-12 via mXylylene) tested on human PCSK9 / human LDLR EGFa domain interaction (Homo sapiens, UniProt Q8NBP7).
Reply: 7.00 to 9.00

Query: Please report the measured pIC50 for CCC[C@@H]1NC(=O)[C@H](Cc2ccc(O)cc2)NC(=O)[C@H](CCC(=O)O)NC(=O)[C@H](CC2CCCCC2)NC(=O)[C@H](Cc2c[nH]c3ncccc23)NC(=O)[C@H]([C@@H](C)O)NC(=O)[C@H](Cc2cnc[nH]2)NC(=O)[C@H](Cc2ccc(O)cc2)NC(=O)[C@H](C(C)(C)C)NC(=O)CCSCc2cccc(c2)CSC[C@@H](C(N)=O)NC(=O)[C@H]([C@@H](C)O)NC1=O [Compound 079] ([Mpa][Tle]YHT[Trp(7-aza)][Cha]EY[Nva]TC-NH2; linker 1-12 via mXylylene) tested on human PCSK9 / human LDLR EGFa domain interaction (Homo sapiens, UniProt Q8NBP7).
Reply: 4.92 to 6.00

Query: Please report the measured pIC50 for CCC[C@@H]1NC(=O)[C@H](Cc2ccc(O)cc2)NC(=O)[C@H](CCC(=O)O)NC(=O)[C@H](CC(C)C)NC(=O)[C@H](Cc2c[nH]c3ncccc23)NC(=O)[C@H]([C@@H](C)O)NC(=O)[C@H](Cc2cnc[nH]2)NC(=O)[C@H](Cc2ccc(O)cc2)NC(=O)[C@H](C(C)(C)C)NC(=O)CCSCc2cccc(c2)CSC[C@@H](C(N)=O)NC(=O)[C@H]([C@@H](C)O)NC1=O [Compound 078] ([Mpa][Tle]YHT[Trp(7-aza)]LEY[Nva]TC-NH2; linker 1-12 via mXylylene) tested on human PCSK9 / human LDLR EGFa domain interaction (Homo sapiens, UniProt Q8NBP7).
Reply: 6.00 to 7.00

Query: Please report the measured pIC50 for CCC[C@@H]1NC(=O)[C@H](Cc2c[nH]c3ncccc23)NC(=O)[C@H]([C@@H](C)O)NC(=O)[C@H](Cc2cnc[nH]2)NC(=O)[C@H](Cc2ccc(O)cc2)NC(=O)[C@H](Cc2ccc(CN)cc2)NC(=O)CCSCc2cccc(c2)CSC[C@@H](C(N)=O)NC(=O)[C@H]([C@@H](C)O)NC(=O)[C@H](CCC)NC(=O)[C@H](Cc2ccc(O)cc2)NC(=O)[C@H](CCC(=O)O)NC1=O [Compound 086] ([Mpa][Phe(4-CH2NH2)]YHT[Trp(7-aza)][Nva]EY[Nva]TC-NH2; linker 1-12 via mXylylene) tested on human PCSK9 / human LDLR EGFa domain interaction (Homo sapiens, UniProt Q8NBP7).
Reply: 6.00 to 7.00
